- system tested: Amyloid-beta precursor protein (Homo sapiens) (UniProt P05067)
- Sequence (P05067 whole entry): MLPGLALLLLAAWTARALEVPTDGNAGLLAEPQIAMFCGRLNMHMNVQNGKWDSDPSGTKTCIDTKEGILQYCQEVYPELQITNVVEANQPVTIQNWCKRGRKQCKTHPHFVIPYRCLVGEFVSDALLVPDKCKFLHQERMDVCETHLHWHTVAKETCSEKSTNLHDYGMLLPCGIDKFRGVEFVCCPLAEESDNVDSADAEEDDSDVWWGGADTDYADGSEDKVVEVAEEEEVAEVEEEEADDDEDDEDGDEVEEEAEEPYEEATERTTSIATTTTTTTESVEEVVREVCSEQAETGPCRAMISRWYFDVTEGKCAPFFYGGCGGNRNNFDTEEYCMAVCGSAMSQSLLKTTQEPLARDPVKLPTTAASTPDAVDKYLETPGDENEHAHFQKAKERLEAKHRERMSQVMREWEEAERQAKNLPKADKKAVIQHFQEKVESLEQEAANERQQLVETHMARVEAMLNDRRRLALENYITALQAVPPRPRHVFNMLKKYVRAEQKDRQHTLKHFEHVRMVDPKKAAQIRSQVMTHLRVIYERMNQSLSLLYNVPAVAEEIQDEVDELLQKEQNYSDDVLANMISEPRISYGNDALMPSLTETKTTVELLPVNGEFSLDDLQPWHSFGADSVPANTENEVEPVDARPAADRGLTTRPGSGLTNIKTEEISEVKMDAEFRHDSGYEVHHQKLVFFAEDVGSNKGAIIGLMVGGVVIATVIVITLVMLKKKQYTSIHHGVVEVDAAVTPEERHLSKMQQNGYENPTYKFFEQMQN
- protocol text: Inhibition of amyloid beta (1 to 42) (unknown origin) aggregation at 20 uM by thioflavin T based fluorometric assay
reported metric: inhibition (%)
Numbers only, in %.

Here are 4 compounds together with their reported answers.
Exam item: inhibition of `Cc1c(OCCN2CCC(O)CC2)ccc2c(=O)cc(-c3ccccc3)oc12` on Amyloid-beta precursor protein (Homo sapiens) (UniProt P05067)?
Marked response: 26.9

Exam item: Now the compound `CCN(CC)CCCCOc1ccc2c(=O)cc(-c3ccccc3)oc2c1C`
Marked response: 39

Exam item: Now the compound Cc1c(OCCN2CCCCC2C)ccc2c(=O)cc(-c3ccccc3)oc12 (stereo not given)
Marked response: 30.5

Exam item: Now the compound Cc1c(OCCCCN2CCCCC2C)ccc2c(=O)cc(-c3ccccc3)oc12 (stereo not given)
Marked response: 37.3

Query compound follows.
Exam item: inhibition of `Cc1c(OCCCCCCN2CCC(O)CC2)ccc2c(=O)cc(-c3ccccc3)oc12` on Amyloid-beta precursor protein (Homo sapiens) (UniProt P05067)?
Marked response: 39
